System: EPHB1 kinase domain
Method Description: pTyr-Var library bacterial peptide display kinase screen (enrichment scores);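 further: log2 fold change in enrichment of variant over reference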
Format: biochemical, human
Measurement Parameters: sheet EPHB1; effect of the variant peptide relative to its reference peptide in the pTyr-Var library screen (enrichment scores)
Listing: Screen of selected sequences
Answer field: number only, no words.

input_sequence="FAELVYTVFWH [ASS1_Y322_G324V]" value=0.03348
input_sequence="GNLLIYTEFGN [HGD_Y166_K171N]" value=0.6139

In plain terms, KAPPTYDNVLQ [CYP3A4_Y347_T349N] has a documented Screen of -0.1539

In plain terms, QNTGFYFDLFG [PTPN11_Y62_D61Y_YF] has a documented Screen of -3.875

In plain terms, TSSAVYMNLAS [GATAD2B_Y317_I316V] has a documented Screen of -2.461

In plain terms, SMEGLYSSAQD [CLIC5_Y111_T114A] has a documented Screen of -0.2291

In plain terms, LTERGYSFTTK [ACTG1_Y198_T203K] has a documented Screen of 1.554

In plain terms, HKDNNYISMWF [PAPOLG_Y432_V433I] has a documented Screen of -1.294

In plain terms, LDAFIYNAAVL [GRIN2A_Y730_D731N] has a documented Screen of -1.471

In plain terms, VATRWYWSPEL [CDKL5_Y177_R178W] has a documented Screen of 3.423

These data points were gathered from paper PMC10065799.
